# Study target: Na^+ /H^+ Exchanger of Rabbit Erythrocytes (Oryctolagus cuniculus)
# Construct: The blood was removed from the aural arteries; endogenous in cells
# Sequence (P23791 whole entry): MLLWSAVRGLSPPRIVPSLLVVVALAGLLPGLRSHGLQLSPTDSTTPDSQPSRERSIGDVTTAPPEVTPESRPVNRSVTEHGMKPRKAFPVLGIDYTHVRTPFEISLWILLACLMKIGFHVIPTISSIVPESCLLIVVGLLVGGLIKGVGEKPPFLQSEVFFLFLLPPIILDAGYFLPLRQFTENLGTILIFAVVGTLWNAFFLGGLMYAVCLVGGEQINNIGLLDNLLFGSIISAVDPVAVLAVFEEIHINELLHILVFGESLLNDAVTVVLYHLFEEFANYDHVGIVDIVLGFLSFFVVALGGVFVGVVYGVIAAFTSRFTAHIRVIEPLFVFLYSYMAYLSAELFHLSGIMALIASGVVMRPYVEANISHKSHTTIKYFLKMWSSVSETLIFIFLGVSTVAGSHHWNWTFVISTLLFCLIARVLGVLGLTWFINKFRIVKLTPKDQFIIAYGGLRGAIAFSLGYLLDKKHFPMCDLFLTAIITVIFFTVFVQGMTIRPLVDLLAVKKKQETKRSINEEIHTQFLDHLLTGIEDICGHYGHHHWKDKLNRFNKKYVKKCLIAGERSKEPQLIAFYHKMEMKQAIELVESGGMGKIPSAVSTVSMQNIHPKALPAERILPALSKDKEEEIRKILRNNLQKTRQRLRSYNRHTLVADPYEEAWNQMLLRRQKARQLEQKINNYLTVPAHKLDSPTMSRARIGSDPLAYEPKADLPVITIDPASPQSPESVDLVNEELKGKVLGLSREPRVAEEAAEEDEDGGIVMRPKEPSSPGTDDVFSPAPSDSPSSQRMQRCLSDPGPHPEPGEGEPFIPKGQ
# Test details: Inhibition of the Na^+ /H^+ Exchanger of Rabbit Erythrocytes (Na^+ influx by flame photometry)
# Study conditions: cholesterol-fed rabbits, pH 7.4, 37° C.
pIC50: −log10 of the molar value. Counter-ions that a name gives are not always drawn.
Decision: pIC50 compared against 6; not below it gives MET, below it gives NOT MET.

{"Compound": "Cc1ccc(C)c(C(=O)NC(=N)N)c1 [Example 5, hydrochloride]", "Label class": "NOT MET"}
{"Compound": "N=C(N)NC(=O)c1ccc(Cl)cc1Cl [Example 3, hydrochloride]", "Label class": "NOT MET"}
{"Compound": "N=C(N)NC(=O)c1cc(I)cc(C(F)(F)F)c1F [Example 10, hydrochloride]", "Label class": "MET"}
